test_description: Human HepG2 cell viability assay in 384 well format
Type: toxicity, cell-based
Set-up: dose 125 nL, time 70.5 hour; concentration not given beside the values
cond: HepG2 cells, read-out: Inhibition
readout: cytotoxicity at 70.5 h (%)
Response body: numeric value in %, unit text excluded.

Previously resolved entries follow.
[
  {
    "compound": "O=C(c1cccnc1)N1C[C@@H]2CC[C@H](C1)N(Cc1cc(F)ccc1F)C2",
    "unit_info": "%",
    "cytotoxicity at 70.5 h": -5.88
  },
  {
    "compound": "Cc1nc(C)n(CC2CCCCN2CCCN2CCCC2=O)n1 (centres undefined)",
    "unit_info": "%",
    "cytotoxicity at 70.5 h": 33.6
  },
  {
    "compound": "CN(C)CCOCc1cncc2c1CCN(C1CCOCC1)C2",
    "unit_info": "%",
    "cytotoxicity at 70.5 h": -11.2
  },
  {
    "compound": "CCOC(=O)N1CC(=O)N(Cc2ccc(OC)cc2)CC(O)C1 (centres undefined)",
    "unit_info": "%",
    "cytotoxicity at 70.5 h": 0.836
  },
  {
    "compound": "C[C@H]1CN2C[C@H](O)CC2CN1Cc1ccc2nccnc2c1 (some centres undefined)",
    "unit_info": "%",
    "cytotoxicity at 70.5 h": -1.32
  },
  {
    "compound": "CC1CN(c2ccc(CNC(=O)c3ccn(C)c(=O)c3)cn2)CCO1 (centres undefined)",
    "unit_info": "%",
    "cytotoxicity at 70.5 h": -8.78
  }
]

Ask: Entry under review: Cc1nc(CNc2ncc(Br)cn2)n[nH]1 . Reported cytotoxicity at 70.5 h?
Reply: -5.62

Ask: What do you have for O=C(NCCCN1CCOCC1)c1ccn(-c2ccc3ccccn23)n1 ?
Reply: 23.5

Ask: What do you have for O=C(NCCc1c[nH]cn1)c1ccc(S(=O)(=O)NC2CCOC2)cc1 (centres undefined) ?
Reply: -0.712

Ask: What do you have for Cc1ccc(CN2CC[C@H]3CO[C@H](CN4CCCC4)[C@H]3C2)o1 ?
Reply: -8.76

Ask: What do you have for CNc1ccc(CC2CCCN(C(=O)c3cnccn3)C2)nn1 (centres undefined) ?
Reply: -14.4

Ask: What do you have for CC(C)(C)n1cc(NC(=O)C2CN(Cc3ccccc3)CCO2)cn1 (centres undefined) ?
Reply: -0.308

Ask: What do you have for CC(C)c1noc(OCc2cccc(S(=O)(=O)N(C)C)c2)n1 ?
Reply: -17.9

Ask: What do you have for O=C(CCCNC(=O)NCC1CCCO1)Nc1ccc(Cl)cc1 (centres undefined) ?
Reply: -8.55

Ref: ChEMBL document CHEMBL3507680
